Tested on: K4 kissing-loop RNA reporter;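 further: bound reporter read as fluorescence of individual clusters on recovered sequencing chips by microscopy, with normalized cluster intensities fitted with a binding model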
Experiment: apparent KD of K4 kissing-loop reporter; higher = weaker reporter binding
Details: Eterna round: R107; input ligand: none
Property Measured: apparent KD of K4 kissing-loop reporter (nM)

1) CAUACGCAUGGAGGAUAUGAGAUUUUUCAUAUUAUUUUUUAUUCUCAGUGAUGUUGGGAUUUAUAAUCAGAAGGCCAUGUGUAUG [Ex FMN B 11]: 84.9
2) CGAGUGAUGUUCGAAGAGUUGUUAAGCGAUACCAGCUAGGAAACUGGCCCUUGGCAGCGUAAUAAAUAAAUAAAUAAAUGAUCAC [whbob_Ex_Theo_A_th62]: 369
3) CCGGCCCAGCCGGAUACCAGUGCGCCGCAGGGAACGGCGGGCCCAGAGUGAUGUUCGGGACACCCUUGGCAGCCGCCUGGGUCCC [#2 Same State - Theophylline B Attempt #30 (HarryS)]: 669
4) AAGCAUUCUUCGGAAUGCAGACCCGCUGAGGAGGAUAUGACGAAAGUCAGAAGGUUUCAGUGAUGUUGAGGCCUCCUCAAUGGUC [whbob_Ex_FMNA__2th182]: 293
5) CACCAUGAAUUCUCUAGGAGUGAUGUUUUUCGAGGACCGGUACGGCCGCCACUCGGACGAGGACCCUGGGAGCGGCGAAGCGGCU [nigmullin]: 238
6) UCCUGCAGUCUGCCACGAAAGUGGAUUGAUACCAGAGUCGAAAGACUCCCUUGGCAGCGAGUGAUGUUCGAAGCAGGUAAAUAAA [MatMod 1 - Jieux - Exclusion - Theophylline A]: 178
7) GACGUGCGAGAGACCGCUCUACCUUGAGAUCGAGGACCGGUACGGCCGCCACUCGGUGUUUAACGUCGAUCCCAGUGAUGUUGGA [theeternabot_sameState_KL_Trp_A_21]: 429
8) GCAUGGAUCGCAGGAUAUAGAUCCGUGAGUGAAUUCUUGCCAGUGAGGAGUGAUGUUCCUCAUGGGCUAGAAGGGCGAUCCAUGC: 89.4
9) CGCGUACAGUGUUCUACGGCCGAGAGUGAUACCAGCCGUAUUUGUGGCCCUUGGCAGCGCAGAUGCAGUGAUGUUGCAUACUUGG [Same State Theophylline A GF 21]: 135
10) UGAUAGGACAGAAGGAGCGGAAGUGAUGUUUCCUAAAGGAUAAAGGUGUCAAAGACACCCUUCCAGGUAGGUCGCUGUCCUAUCU [ArgBX 16 #Palindromic #SwitchBubble #StaticStem]: 579
11) CCGGCCCGGCCGGAUACCAGUGCGCCGCUGGGAACCGCGGGCCCAGAGUGAUGUUCGGGACACCCUUGGCAGCCGCCUGGGUCGC [#2 Same State - Theophylline B Attempt #24 (HarryS)]: 247

* * *

Tested on: MS2 coat protein
Test: apparent KD of MS2 coat protein; designed switch direction (-1 OFF switch, 1 ON switch): 1; higher = weaker reporter binding
Details: input ligand: none
Property Measured: apparent KD of MS2 coat protein (nM)

1. AUGGUGCAGGUACAGGAUAUGUUGCUCGUAACAUGAGGAUCACCCAUGUACCUAUGAGAUUAAAUGCAGAAGGGUGCACACCAAA [Mat - Same State 2 - Mod of UCT - D90] (Eterna round: R96, puzzle: Same State 2): 1350
2. UCUGAUGCCGUAGGAUAUCUAGGAUAUGGACGAGGAUCACCCGAGCAGCAUCAGCGCACCAGAGGAGAGAAGGACGCUUUGGAA [pwkr ssNG2 2F5 2FMN.21] (Eterna round: R96, puzzle: Same State NG 2): 1190
3. AAACAUGAGCGAGGAUAUGCGGAGGAUCACCCUGUAGAAGGCGCAUGUAAAACAACAUGAGGAUCACCCAUGUCAUGUACAUAA (Eterna round: R96, puzzle: Same State NG 1): 223
